- System: MDA-MB-453
- ASSAY REMARKS: drug sensitivity score (DSS), single agent (DSS (weighted AUC score)); higher = more sensitive (stronger viability decrease); extreme values may be limits of the assay
- ASSAY CONTEXT: BLU9931 0 nM; 72 h
REPORTED ENDPOINT: drug sensitivity score

MOLECULE	REPORTED ENDPOINT	READING
CCCCOc1nc(N)c2c(n1)N(Cc1cccc(CN3CCCC3)c1)CC(=O)N2	drug sensitivity score	3
CN(CC(=O)N(Cc1ccc(C2CCCCC2)cc1)c1ccc(C(=O)O)cc1)S(=O)(=O)c1c(F)c(F)c(F)c(F)c1F	drug sensitivity score	5.4
Cc1cccc(-c2nn3c(c2-c2ccnc4ccc(C(N)=O)cc24)CCC3)n1	drug sensitivity score	0
Cc1cc(Nc2ncnc3ccc(NC4=NC(C)(C)CO4)cc23)ccc1Oc1ccn2ncnc2c1	drug sensitivity score	0.5
C[C@]1(c2nc3c(C(N)=O)cccc3[nH]2)CCCN1	drug sensitivity score	1.6
CN1CCN(CCOc2cc(OC3CCOCC3)c3c(Nc4c(Cl)ccc5c4OCO5)ncnc3c2)CC1	drug sensitivity score	1.5
COc1cc2ncnc(Oc3cccc(NC(=O)Nc4cc(C(C)(C)C(F)(F)F)on4)c3)c2cc1OC	drug sensitivity score	5.1
O=c1[nH]c(=O)n([C@H]2C[C@H](O)[C@@H](CO)O2)cc1F	drug sensitivity score	4.9
Cn1ncc(Cl)c1-c1cc(C(=O)N[C@H](CN)Cc2ccc(F)c(F)c2)oc1Cl	drug sensitivity score	7.6
Cc1nc(-c2cn3c(n2)-c2ccc(-c4cnn(C(C)(C)C(N)=O)c4)cc2OCC3)n(C(C)C)n1	drug sensitivity score	17.9
c1cn2cc(-c3ccc4cn[nH]c4c3)nc(Nc3ccc(N4CCOCC4)cc3)c2n1	drug sensitivity score	0
Cc1ccc(=O)n(-c2ccccc2)c1	drug sensitivity score	0
COc1cccc2c1C(=O)c1c(O)c3c(c(O)c1C2=O)C[C@@](O)(/C(CO)=N/NC(=O)CCCCCN1C(=O)C=CC1=O)C[C@@H]3O[C@H]1C[C@H](N)[C@H](O)[C@H](C)O1	drug sensitivity score	5.8
O=C(Nc1cc(Oc2cc(F)c(NC(=O)C3(C(=O)Nc4ccc(F)cc4)CC3)cc2F)ccn1)C1CC1	drug sensitivity score	7.1
CC(C)(C)NC(=O)[C@H]1CC[C@H]2[C@@H]3CC[C@H]4NC(=O)C=C[C@]4(C)[C@H]3CC[C@]12C [Finasteride]	drug sensitivity score	0.3
CCCS(=O)(=O)Nc1ccc(F)c(C(=O)c2c[nH]c3ncc(-c4ccc(Cl)cc4)cc23)c1F	drug sensitivity score	0

These entries and their values trace back to the supplement of paper PMC7224384.
